- target.under.test: agonist-induced platelet aggregation (Homo sapiens, UniProt P05106+P08514)
- Sequence (P08514 32-1039): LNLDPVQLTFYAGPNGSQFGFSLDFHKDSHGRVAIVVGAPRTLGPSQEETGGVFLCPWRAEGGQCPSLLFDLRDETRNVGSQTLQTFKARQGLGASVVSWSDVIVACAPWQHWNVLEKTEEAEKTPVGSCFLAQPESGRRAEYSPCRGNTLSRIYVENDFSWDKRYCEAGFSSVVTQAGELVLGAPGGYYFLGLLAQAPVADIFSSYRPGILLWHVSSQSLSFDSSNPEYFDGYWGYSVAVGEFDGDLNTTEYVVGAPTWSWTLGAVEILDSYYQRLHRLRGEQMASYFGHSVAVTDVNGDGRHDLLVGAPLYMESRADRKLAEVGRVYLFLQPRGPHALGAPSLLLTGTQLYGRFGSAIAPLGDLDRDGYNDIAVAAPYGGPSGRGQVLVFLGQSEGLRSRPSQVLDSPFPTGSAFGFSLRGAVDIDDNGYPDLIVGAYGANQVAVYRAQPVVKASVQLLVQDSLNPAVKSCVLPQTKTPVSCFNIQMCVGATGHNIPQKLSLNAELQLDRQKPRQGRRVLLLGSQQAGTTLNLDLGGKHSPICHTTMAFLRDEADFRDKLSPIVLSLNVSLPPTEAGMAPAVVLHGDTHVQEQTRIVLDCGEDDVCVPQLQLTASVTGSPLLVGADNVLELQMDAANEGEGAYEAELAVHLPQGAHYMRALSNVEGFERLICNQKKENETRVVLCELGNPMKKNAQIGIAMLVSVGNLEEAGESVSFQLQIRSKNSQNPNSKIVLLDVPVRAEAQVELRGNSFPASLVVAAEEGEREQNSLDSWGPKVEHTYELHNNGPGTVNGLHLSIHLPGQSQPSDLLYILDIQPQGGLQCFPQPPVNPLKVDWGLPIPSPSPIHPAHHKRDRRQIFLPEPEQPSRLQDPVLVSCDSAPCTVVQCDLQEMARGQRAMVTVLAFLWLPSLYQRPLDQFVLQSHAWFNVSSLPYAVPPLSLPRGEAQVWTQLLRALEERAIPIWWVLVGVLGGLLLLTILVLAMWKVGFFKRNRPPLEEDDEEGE
- Sequence (P05106 27-788): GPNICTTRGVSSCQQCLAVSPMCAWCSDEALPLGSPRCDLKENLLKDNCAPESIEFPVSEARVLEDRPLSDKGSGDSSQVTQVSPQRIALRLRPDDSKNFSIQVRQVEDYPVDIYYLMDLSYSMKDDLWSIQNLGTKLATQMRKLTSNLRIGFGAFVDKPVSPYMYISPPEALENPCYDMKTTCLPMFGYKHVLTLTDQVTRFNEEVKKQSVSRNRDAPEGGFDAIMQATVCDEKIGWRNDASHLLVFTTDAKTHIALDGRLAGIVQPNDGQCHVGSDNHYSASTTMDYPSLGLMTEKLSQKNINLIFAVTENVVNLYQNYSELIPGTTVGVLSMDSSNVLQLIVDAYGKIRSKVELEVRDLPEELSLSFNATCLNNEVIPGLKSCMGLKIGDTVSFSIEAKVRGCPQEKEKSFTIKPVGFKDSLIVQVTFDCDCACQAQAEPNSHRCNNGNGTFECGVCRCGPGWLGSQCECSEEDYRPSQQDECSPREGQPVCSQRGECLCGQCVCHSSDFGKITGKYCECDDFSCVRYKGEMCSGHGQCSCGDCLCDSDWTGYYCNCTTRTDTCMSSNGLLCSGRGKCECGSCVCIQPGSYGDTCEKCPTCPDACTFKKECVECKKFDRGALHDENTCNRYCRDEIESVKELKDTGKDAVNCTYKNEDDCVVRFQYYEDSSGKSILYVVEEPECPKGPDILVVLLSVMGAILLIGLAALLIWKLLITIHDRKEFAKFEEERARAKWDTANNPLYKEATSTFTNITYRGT
- measurement.notes: Platelet Aggregation Assay
- protocol.conditions: human PRP; agonist-induced aggregation
Starred links: 1 amine or outer side, 2 acyl side, 3 side chain; linkers in the order of their positions; H or OH if unused. Non-standard residues stand in square brackets, D forms with d. Residues, ends and D or L forms follow the SMILES beside them. X5 = O=C(c1ccc(I)c(CN[*:1])c1)[*:2]; NMeR = CN[C@@H](CCCNC(=N)N)C(=O)O; 3Amb = NCc1cccc(C(=O)O)c1; dAbu = CC[C@@H](N)C(=O)O; βAla = NCCC(=O)O
property.name: IC50

# compound, observed.measurement
data = [
    ("CN1C(=O)CNC(=O)c2cccc(c2)CNC(=O)[C@H](CC(=O)O)NC(=O)CNC(=O)[C@@H]1CCCNC(=N)N [Example 1, cyclo-(Gly-NMeArg-Gly-Asp-Mamb)] (cyclo([NMeR]GD[3Amb]G))", "< 1 µM"),
    ("CC(C)[C@H]1NC(=O)c2ccc3cccc(c3c2)CNC(=O)[C@H](CC(=O)O)NC(=O)CNC(=O)[C@H](CCCNC(=N)N)N(C)C1=O [Example 89c]", "1 to 10 µM"),
]

What the record says about CC(C)[C@H]1NC(=O)c2ccccc2CNC(=O)[C@H](CC(=O)O)NC(=O)CNC(=O)[C@H](CCCNC(=N)N)N(C)C1=O : IC50 is < 1 µM

What the record says about CC(C)[C@H]1NC(=O)c2cccc(c2)CNC(=O)[C@H](CC(=O)O)NC(=O)CNC(=O)[C@@H](CCCNC(=N)N)N(C)C1=O : IC50 is 1 to 10 µM

What the record says about N=C(N)NCCC[C@@H]1NC(=O)CNC(=O)c2cccc(c2)CNC(=O)[C@H](CC(=O)O)NC(=O)CNC1=O [Example 29, cyclo-(Gly-Arg-Gly-Asp-Mamb)] (cyclo(RGD[3Amb]G)) : IC50 is 1 to 10 µM

What the record says about CC(C)[C@H]1NC(=O)c2cccc(c2)CNC(=O)[C@H](CC(=O)O)N(C)C(=O)CNC(=O)[C@H](CCCNC(=N)N)N(C)C1=O [Example 64b, cyclo-(D-Val-NMeArg-Gly-NMeAsp-Mamb)] : IC50 is 1 to 10 µM

What the record says about CN1C(=O)CCNC(=O)c2cccc(c2)CNC(=O)[C@H](CC(=O)O)NC(=O)CNC(=O)[C@@H]1CCCNC(=N)N [Example 28c, cyclo-(b-Ala-NMeArg-Gly-Asp-Mamb)] (cyclo([NMeR]GD[3Amb][βAla])) : IC50 is < 1 µM

What the record says about CC(C)[C@H]1NC(=O)c2cccc(c2)CNC(=O)C(C)(CC(=O)O)NC(=O)CNC(=O)[C@H](CCCNC(=N)N)N(C)C1=O (single isomer, unassigned) [Example 63a, cyclo-(D-Val-NMeArg-Gly-α-MeAsp-Mamb)] : IC50 is 10 to 100 µM

What the record says about CC[C@H]1NC(=O)c2ccc(I)c(c2)CNC(=O)[C@H](CC(=O)O)NC(=O)CNC(=O)[C@H](CCCNC(=N)N)N(C)C1=O [Example 89d, cyclo-(D-Abu-NMeArg-Gly-Asp-iodo-Mamb)] (cyclo([NMeR]GD[X5][dAbu])) : IC50 is < 1 µM

What the record says about CC(C)[C@H]1NC(=O)c2ccc3c(c2)C(CCC3)NC(=O)[C@H](CC(=O)O)NC(=O)CNC(=O)[C@H](CCCNC(=N)N)N(C)C1=O (single isomer, unassigned) [Example 89a] : IC50 is < 1 µM

###

Reported IC50 is given for each of the following compounds.
- target.under.test: agonist-induced platelet aggregation (Homo sapiens, UniProt P05106+P08514)
- measurement.notes: Platelet Aggregation Assay
- protocol.conditions: human PRP; agonist-induced aggregation
Starred links: 1 amine or outer side, 2 acyl side, 3 side chain; linkers in the order of their positions; H or OH if unused. Non-standard residues stand in square brackets, D forms with d. Residues, ends and D or L forms follow the SMILES beside them. NMeR = CN[C@@H](CCCNC(=N)N)C(=O)O; X3 = Cc1ccc(CN[*:1])cc1C(=O)[*:2]; dNle = CCCC[C@@H](N)C(=O)O; 3Amb = NCc1cccc(C(=O)O)c1; dAbu = CC[C@@H](N)C(=O)O

# compound, target.under.test, IC50
rows = [
    ("N=C(N)NCCC[C@@H]1NC(=O)[C@@H](CO)NC(=O)c2cccc(c2)CNC(=O)[C@H](CC(=O)O)NC(=O)CNC1=O [Example 35, cyclo-(D-Ser-Arg-Gly-Asp-Mamb)] (cyclo(RGD[3Amb][dS]))", "agonist-induced platelet aggregation (Homo sapiens, UniProt P05106+P08514)", "1 to 10 µM"),
]

What the record says about CC(C)C[C@H]1NC(=O)c2cccc(c2)CNC(=O)[C@H](CC(=O)O)NC(=O)CNC(=O)[C@H](CCCNC(=N)N)NC1=O [Example 33, cyclo-(D-Leu-Arg-Gly-Asp-Mamb)] (cyclo(RGD[3Amb][dL])) : IC50 is 1 to 10 µM

What the record says about CC(C)[C@H]1NC(=O)c2cccc(c2)CNC(=O)[C@H](CC(=O)O)NC(=O)CNC(=O)[C@H](CCCNC(=N)N)N(C)C1=O : IC50 is < 1 µM

What the record says about CN1C(=O)[C@@H](Cc2ccc(O)cc2)NC(=O)c2cccc(c2)CNC(=O)[C@H](CC(=O)O)NC(=O)CNC(=O)[C@@H]1CCCNC(=N)N [Example 28f, cyclo-(D-Tyr-NMeArg-Gly-Asp-Mamb)] (cyclo([NMeR]GD[3Amb][dY])) : IC50 is < 1 µM

What the record says about CC[C@@H](C)[C@H]1NC(=O)c2cccc(c2)CNC(=O)[C@H](CC(=O)O)NC(=O)CNC(=O)[C@H](CCCNC(=N)N)N(C)C1=O [Example 13r, cyclo-(D-Ile-NMeArg-Gly-Asp-Mamb)] (cyclo([NMeR]GD[3Amb][dI])) : IC50 is < 1 µM

What the record says about CC(C)C[C@H]1NC(=O)c2cccc(c2)CNC(=O)[C@H](CC(=O)O)NC(=O)CNC(=O)[C@H](CCCNC(=N)N)N(C)C1=O [Example 5, cyclo-(D-Leu-NMeArg-Gly-Asp-Mamb)] (cyclo([NMeR]GD[3Amb][dL])) : IC50 is < 1 µM

What the record says about CCCC[C@H]1NC(=O)c2cccc(c2)CNC(=O)[C@H](CC(=O)O)NC(=O)CNC(=O)[C@H](CCCNC(=N)N)N(C)C1=O [Example 7, cyclo-(D-Nle-NMeArg-Gly-Asp-Mamb)] (cyclo([NMeR]GD[3Amb][dNle])) : IC50 is < 1 µM

What the record says about CC(C)[C@H]1NC(=O)c2cc(ccc2Cl)CNC(=O)[C@H](CC(=O)O)NC(=O)CNC(=O)[C@H](CCCNC(=N)N)N(C)C1=O : IC50 is < 1 µM

What the record says about CC[C@H]1NC(=O)c2cc(ccc2C)CNC(=O)[C@H](CC(=O)O)NC(=O)CNC(=O)[C@H](CCCNC(=N)N)N(C)C1=O [Example 100c] (cyclo([NMeR]GD[X3][dAbu])) : IC50 is < 1 µM

###

- target.under.test: agonist-induced platelet aggregation (Homo sapiens, UniProt P05106+P08514)
- measurement.notes: Platelet Aggregation Assay
- Format: cell-based
- protocol.conditions: human PRP; agonist-induced aggregation
pIC50: −log10 of the molar value. Non-standard residues stand in square brackets, D forms with d. Residues, ends and D or L forms follow the SMILES beside them. NMeR = CN[C@@H](CCCNC(=N)N)C(=O)O; 3Amb = NCc1cccc(C(=O)O)c1; dAbu = CC[C@@H](N)C(=O)O
property.name: pIC50

# compound, pIC50
measured = [
    ("CN1C(=O)[C@H]2CCCN2C(=O)c2cccc(c2)CNC(=O)[C@H](CC(=O)O)NC(=O)CNC(=O)[C@@H]1CCCNC(=N)N [Example 25, cyclo-(D-Pro-NMeArg-Gly-Asp-Mamb)] (cyclo([NMeR]GD[3Amb][dP]))", "> 6.00"),
]

Kindly consider the entry below.
Measured pIC50 (agonist-induced platelet aggregation (Homo sapiens, UniProt P05106+P08514)), entry CC[C@H]1NC(=O)c2cccc(c2)CNC(=O)[C@H](CC(=O)O)NC(=O)CNC(=O)[C@H](CCCNC(=N)N)NC1=O [Example 34, cyclo-(D-Abu-Arg-Gly-Asp-Mamb)] (cyclo(RGD[3Amb][dAbu])) : 5.00 to 6.00
